This collection of values is drawn from ChEMBL document CHEMBL1157095.

test system: Nucleic Acid; test: Binding affinity to pUC18 DNA containing 50% AT assessed as middle of the integrated surface melting temperature at 1 uM by spectrophotometry analysis; assay type: nucleic-acid assay
value-type: Tm

INSERT INTO assay_data (compound, measurement) VALUES
  ('CN(C)CCC(NCCNc1ccnc2cc(Cl)ccc12)c1ccccc1 (centres undefined)', '75.5 °C'),
  ('Clc1ccc2c(NCCNC(CCN3CCCCC3)c3ccccc3)ccnc2c1 (centres undefined)', '74.4 °C'),
  ('CC(C)NCCNc1ccnc2cc(Cl)ccc12', '73.9 °C'),
  ('CCN(CC)CCCC(C)Nc1ccnc2cc(Cl)ccc12 (centres undefined)', '73.7 °C');
